system under test: E-selectin (Homo sapiens)
assay procedure: Relative inhibitory concentration against Selectin E to that of sLex in a static cell free ligand binding assay

molecule	Relative IC50
COC(=O)CCCCCCCCO[C@@H]1O[C@@H](CO)[C@@H](O[C@@H]2O[C@@H](CO)[C@H](O)[C@H](O[C@]3(C(=O)O)C[C@@H](O)[C@@H](NC(C)=O)[C@H]([C@@H](O)[C@H](O)CO)O3)[C@@H]2O)[C@H](O[C@@H]2O[C@@H](C)[C@@H](O)[C@H](O)[C@@H]2O)[C@@H]1NC(C)=O	1
COC(=O)CCCCCCCCO[C@@H]1O[C@@H](CO)[C@@H](O[C@@H]2O[C@@H](CO)[C@H](O)[C@H](O[C@@H](CC3CCCCC3)C(=O)O)[C@@H]2O)[C@H](O[C@@H]2O[C@@H](C)[C@@H](O)[C@H](O)[C@@H]2O)[C@@H]1NC(=O)c1ccc(OC)c(OC)c1	0.03
C[C@@H]1O[C@@H](O[C@@H]2CCCC[C@H]2O[C@@H]2O[C@@H](CO)[C@H](O)[C@H](OC(CC3CCCCC3)C(=O)O)[C@@H]2O)[C@@H](O)[C@@H](O)[C@@H]1O (single isomer, unassigned)	0.115
C[C@@H]1O[C@@H](O[C@@H]2[C@H](CO)OCC[C@H]2O[C@@H]2O[C@@H](CO)[C@H](O)[C@H](OC(CC3CCCCC3)C(=O)O)[C@@H]2O)[C@@H](O)[C@@H](O)[C@@H]1O (single isomer, unassigned)	0.031
COC(=O)CCCCCCCCOC1O[C@@H](O)[C@@H](O[C@@H]2O[C@@H](CO)[C@H](O)[C@H](O[C@]3(C(=O)O)C[C@@H](O)[C@@H](NC(C)=O)[C@H]([C@@H](O)[C@H](O)CO)O3)[C@@H]2O)[C@H](O[C@@H]2O[C@@H](C)[C@@H](O)[C@H](O)[C@@H]2O)[C@@H]1NC(=O)c1ccc(OC)c(OC)c1 (stereo not given in full)	0.164
